Here, each record is paired with measured TGI data.
Tested on: NCI-H460 lung
Protocol text: NCI tumour cell line growth inhibition, 48 h
Respond numerically; units are µM and should not be typed.

Answered cases to consult:
>  <Mol smiles>
Nc1nc(N)c2cc(-c3ccccc3)cnc2n1

>  <Readout value>
24.3

$$$$
>  <Mol smiles>
COc1ccc(/C(COc2ccc3c(=O)c(-c4ccccc4)coc3c2)=N\O)cc1

>  <Readout value>
31.7

$$$$

Please turn your attention to the following entry.
Please tell me: TGI of `CCN(Cc1ccccc1)c1ccc(CO)c(Cl)c1` , system NCI-H460 lung?
13.9

---

Tested on: XF 498 CNS
Protocol text: NCI tumour cell line growth inhibition, 48 h
Test readout: TGI (µM)
Respond numerically; units are µM and should not be typed.

Answered cases to consult:
>  <Compound>
CN1CC(=O)N(C)c2ncn(Cc3ccccc3)c2C1=O

>  <TGI / µM>
96.4

$$$$
>  <Compound>
COc1cc(OC)c(SSCCCCS(=O)O)c(OC)c1

>  <TGI / µM>
27.6

$$$$
>  <Compound>
C[C@]12CC[C@H](OC3OC(CO)C(O)C(O)C3O)C[C@H]1CC[C@@H]1[C@@H]2CC[C@]2(C)[C@@H](C3=CCOC3=O)CC[C@]12O (stereo not given in full)

>  <TGI / µM>
11.2

$$$$
>  <Compound>
CC(=O)O[C@H]1C(=O)[C@@]2(C)[C@H]([C@H](OC(=O)c3ccccc3)[C@]3(O)C[C@H](OC(=O)[C@H](O)[C@@H](NC(=O)c4ccccc4)c4ccccc4)C(C)=C1C3(C)C)[C@]1(OC(C)=O)CO[C@@H]1C[C@@H]2O

>  <TGI / µM>
0.0355

$$$$
>  <Compound>
O=C1Cc2c([nH]c3ccccc23)-c2ccccc2N1

>  <TGI / µM>
91.8

$$$$

Please turn your attention to the following entry.
Return reported TGI; argument: CCCCCCCCCCCCCCCCCCN(C)C(COC)COP(=O)([O-])OCC[N+](C)(C)C (stereo not given)
39.8

---

System: HT29 colon
Protocol text: NCI tumour cell line growth inhibition, 48 h
Test readout: TGI

Answered cases to consult:
>  <Compound>
COc1ccc(-c2c3c(cc4cc5c(cc24)OCO5)C(=O)OC3)cc1OC

>  <TGI>
6.55 µM

$$$$
>  <Compound>
COC(=O)CC[C@]1(C)O[C@H]2[C@H]([C@@H](C)CCCC(C)=O)OC(=O)[C@@H]2C[C@H]1O

>  <TGI>
> 100 µM

$$$$
>  <Compound>
CN(C)CCNC(=O)c1cccc2nc3cc(Cl)ccc3nc12

>  <TGI>
6.22 µM

$$$$
>  <Compound>
O=C(CCc1nnc2s/c(=C\c3ccc(Cl)c(Cl)c3)c(=O)n12)Nc1ccc(Cl)c(Cl)c1

>  <TGI>
> 100 µM

$$$$
>  <Compound>
Oc1c(Cl)c(Cl)c(O)c(CCNc2ccc3ncccc3c2)c1Cl

>  <TGI>
88.4 µM

$$$$
>  <Compound>
COc1c(OC(C)C)c(OC(C)C)c2oc(=O)n3c2c1C(c1ccccc1-n1c(C)ccc1C)C=C3 (centres undefined)

>  <TGI>
> 100 µM

$$$$

Return reported TGI; argument: `COc1cc(Nc2nc3ccccc3nc2NS(=O)(=O)c2ccc(NC(=O)c3ccc(C)c(OC)c3)cc2)cc(OC)c1`
> 100 µM

Return reported TGI; argument: COc1cccc(C2c3cc4c(cc3OC(N3CCOCC3)C2C)OCO4)c1OC (centres undefined)
15.8 µM

Return reported TGI; argument: `O=C(N/N=C/c1c(-c2ccccc2)no[n+]1[O-])N1CCOCC1`
> 100 µM

Values from PubChem BioAssay (NCI)
